System: HEK293T (UBE3A T485A transfected, BAR Wnt reporter)
Test: Renilla luciferase signal (cell health) relative to plate median (fold (linear ratio)); higher = higher Renilla signal
Conditions: concentration: 0.01 uM; 24 h
Over roughly 1,100 compounds, “Renilla luciferase signal (cell health) relative to plate median” has its median near 0.97; the highest 2% begin near 1.6. The entries come from a sample that favours the highest values as a whole.
// reported Renilla luciferase signal per item
value.kind: Renilla luciferase signal

> print(dat)
                                    molecule                 value.kind  reading
 1                        Oc1ccccc1-c1ccccc1  Renilla luciferase signal     1.08
 2     CNc1cnn(-c2cccc(C(F)(F)F)c2)c(=O)c1Cl  Renilla luciferase signal     1.06
 3  O=C1C2CC=CCC2C(=O)N1SC(Cl)(Cl)Cl (stereo not given)  Renilla luciferase signal     1.19
 4  C#CCN1C(=O)COc2cc(F)c(N3C(=O)C4=C(CCCC4)C3=O)cc21  Renilla luciferase signal     1.13
 5                      O=C(O)c1nc(Cl)ccc1Cl  Renilla luciferase signal    0.962
 6  CS(=O)(=O)c1cc(C(F)(F)F)ccc1C(=O)c1cnoc1C1CC1  Renilla luciferase signal    0.938
 7           CCCCOCN(C(=O)CCl)c1c(CC)cccc1CC  Renilla luciferase signal    0.877
 8   C[Si](Cn1cncn1)(c1ccc(F)cc1)c1ccc(F)cc1  Renilla luciferase signal     1.03
 9            COP(=S)(OC)Oc1nc(Cl)c(Cl)cc1Cl  Renilla luciferase signal      1.5
10               Nc1c(Cl)c(Cl)nc(C(=O)O)c1Cl  Renilla luciferase signal     1.22
